Origin of values: the supplement of paper PMC6555819

Tested on: LXRb homodimer (NR concentration 270 nM)
Assay: PBM binding z-score (relative to random genomic background probes); higher = stronger binding; sequences stand for … in GC…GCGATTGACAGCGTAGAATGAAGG
Reported Metric: PBM binding z-score
# output: bare number, no unit

Fill in PBM binding z-score for record CCGACTGGCGCAAGGTTACCATAACGCACAGCCA
-0.776

Fill in PBM binding z-score for record CCTCAGAGGACAGAAGGTCAGAGCTGTCCGCTTT
-0.707

Fill in PBM binding z-score for record ACAGACAGGTGAGTGAAGCTAACTCAGCTGGACG
-0.79

Fill in PBM binding z-score for record AGAATGAGGTTAAGATCATGGAAACAGAATACAT
-0.112

Fill in PBM binding z-score for record ATCTCTAGTTAAAAGTTCAGTGAATCCCGAGGAT
1.25

Fill in PBM binding z-score for record AGTCAAAGTTCACTAGCTAACGTAAGATTCAGCT
1.11

Fill in PBM binding z-score for record CCTTACGGGTCACGAGGTTATCGCACGACGAGCG
0.0453

Fill in PBM binding z-score for record GCGACTGGGGCATGAGCAGGTTACCATAACTTAA
-1.12

Fill in PBM binding z-score for record CCTACTGGGCCATCCAGAGGTCATTGATCATATG
0.613

Fill in PBM binding z-score for record CGTCAAAGTTTAACTAAGGTAACGTAAAGCACGC
0.249

Fill in PBM binding z-score for record CAAACTAGGTCATGAGGTCAAAGTCCGCTTCCCG
1.82

Fill in PBM binding z-score for record GCATATAGGTAATACAAGATGAAAGTCCGATTGT
-0.326

---

Measured PBM binding z-score, listed per entry for reference.
Test system: PPARg:RXRa 30nM:10nM, anti-RXR (NR concentration 30 nM, RXRa partner concentration 10 nM)
Assay: PBM binding z-score (relative to random genomic background probes); higher = stronger binding; sequences stand for … in GC…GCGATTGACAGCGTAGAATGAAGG
# output: bare number, no unit

Fill in PBM binding z-score for record GCGACTGGGGCATTAGCAGGTTACCATAACTTAA
-0.0543

Fill in PBM binding z-score for record CCTTACGGGTAACTGACAGGTTATAGCATTTGGA
-0.0329

Fill in PBM binding z-score for record CCTGCTGGGCCATCAGGTCATTGATATCAACGTT
-0.123

Fill in PBM binding z-score for record ATCTCTAGGTAAAAGTTCAGTGATTCCCGAGGAT
7.32

---
Fill in PBM binding z-score for record ACTAGCAGGCCAAGGGTCGCTCAAGATTAGTCCG
3.7

Fill in PBM binding z-score for record CGTCCAAGGTCAGCAGGTCAGGGAAAGCGACGTG
1.38

---

Measured PBM binding z-score, listed per entry for reference.
Test system: VDR homodimer (NR concentration 270 nM)
Test: PBM binding z-score (relative to random genomic background probes); higher = stronger binding; sequences stand for … in GC…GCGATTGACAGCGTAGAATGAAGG

As a guide, the following entries are already answered.
Fill in PBM binding z-score for record GCAAGCAGGCCATTTGGGTCACTCAATGACGGGC
0.402

Fill in PBM binding z-score for record TCTAGTTGGTCACGGAGGTCTCACACGACGGGTA
0.33

Fill in PBM binding z-score for record ATATCTAGGTTATCGGGTCATTCAGTTTGCGCAT
4.19

---
Fill in PBM binding z-score for record TTACCAAGGTGATAGGTCGTTGATGCACGCCTTG
0.256

Fill in PBM binding z-score for record TTACCAAGGTGAAAGGTCGTTGGTGCACGCCTTG
1.86

Fill in PBM binding z-score for record TCGAGTAGGTTACCAATGGGGCATTAAGCTTTCT
-0.636

Fill in PBM binding z-score for record CCTGCTAGGTCATGGTTAGCTAATCTACAGTATG
-0.043
